The values you see were collected from PubChem BioAssay.

Catalogue of composite z-score readings, one per entry.
Assay: small-molecule microarray binders of probe aDKK1, primary screen, biochemical, biotinylated probe, 635/667 nm fluorescence (AID 1099);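 note: score merges 667nm spot fluorescence with signal to noise across triplicate slides; reference of the scale not given here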
Settings: higher = more signal
Respond using a number only.

Which measured composite z-score value corresponds to `CO[C@H]1COC(=O)CC=C[C@H](C)COC(=O)[C@@H](OCc2ccccc2)C=C[C@@H]1C` ?
-1.12

// query: `CCCC[C@@H]1C[C@H]1[C@@H](NC(=O)c1cccs1)c1ccc(Cl)cc1`
0.517

One more compound: `C[N+](C)(C)CCCCNC(=O)[C@@H]1C[C@@H]2C(=O)N3CCC[C@H]3C(=O)N2[C@@H]1c1cccc(OCCO)c1`
-0.222

Another compound: `CCN1C(C)=C(C(=O)OC)[C@@H](c2ccccc2)N2C(=O)[C@](O)(C(=O)OC)[C@@H](c3ccccc3)C(C(=O)c3ccccc3)=C12`
0.0153

Next entry: `C[C@H]1COC(=O)[C@@H]2CCCN2C(=O)[C@@H](C)COC(=O)[C@@H]2CCCN2C1=O`
-0.37

What do we get for `CC(=O)NCCCC[C@@H]1NC(=O)[C@@H]2C[C@H](C(=O)NCCCCCCN(C)C)[C@H](c3ccc(O)cc3)N2C1=O` ?
0.363

# repeat for `O=C(NCc1ccccc1)c1ccc(Br)cc1[N+](=O)[O-]`
-0.261

Lookup `CN(C)C(=O)[C@@]1(Cc2ccccc2N=[N+]=[N-])N=C(c2ccc(OCCCO)cc2)O[C@H]1c1ccccc1CN=[N+]=[N-]`
1.22

Can you handle `Cc1ccc(S[C@]2(C(=O)O)CC(=O)N(Cc3cc(C(F)(F)F)cc(C(F)(F)F)c3)[C@@H]2c2ccc(CO)cc2I)cc1` next?
0.483

// query: `COCCOC(=O)N1C(=O)[C@@]2(c3cc(C#CC4=CCCCC4)ccc31)[C@H](C(=O)NC[C@H](O)c1ccccc1)[C@H]1C(=O)O[C@H](c3ccccc3)[C@H](c3ccccc3)N1[C@@H]2c1ccccc1OCCO`
0.659

And `CCOC(=O)C[C@H]1[C@H](OC(=O)Cc2ccc3c(c2)OCO3)[C@@H](NC(=O)CC(C)C)c2cc(OCCCO)ccc2N1C(=O)c1ccccc1` ?
-0.095

// repeat for `CO[C@H]1COC(=O)[C@H](CCSC)NC(=O)CC=C[C@@H](C)COC(=O)[C@@H](OCc2ccccc2)C=C[C@@H]1C` and report
0.981

Same lookup for `COCCOC(=O)N1C(=O)[C@@]2(c3cc(C#CCNC(N)=O)ccc31)[C@H](c1ccc(OCCO)cc1)N1[C@H](c3ccccc3)[C@H](c3ccccc3)OC(=O)[C@H]1[C@@H]2C(=O)Nc1nc2ccccc2s1` , please.
0.997

Record: `C=CCNC(=O)[C@H]1[C@@H]2C(=O)O[C@@H](c3ccccc3)[C@@H](c3ccccc3)N2[C@@H](c2ccccc2OCCO)[C@]12C(=O)N(C(=O)OCCOC)c1ccc(C#CCC(C(=O)OC)C(=O)OC)cc12`
0.572

Consider next the compound `O=C1O[C@H](c2ccccc2)[C@H](c2ccccc2)N2[C@H]1[C@@H](C(=O)NC[C@H](O)c1ccccc1)[C@]1(C(=O)Nc3ccc(C#CC4=CCCCC4)cc31)[C@H]2c1ccc(OCCO)cc1` in the same way.
0.607

For `CC(=O)NCCCC[C@@H]1NC(=O)[C@@H]2C[C@H](C(=O)NCCCCCNC(=O)CS)[C@H](c3ccc(O)cc3)N2C1=O` then?
-0.384

What do we get for `Cc1ccc(N2C(=O)c3ccccc3[C@@H](C(=O)NCC(F)(F)F)[C@@H]2c2ccc(CO)cc2)nc1` ?
0.476

Same question for `COC(=O)[C@H]1[C@@H]2COc3ccccc3[C@H]2N[C@H]1C(=O)OC` please.
-0.0995

Similarly, `O=C1c2ccccc2[C@@]2(Cc3ccccc3N(CC(F)(F)F)C2=O)[C@H](c2ccc(CO)cc2)N1C1CCCCC1` ?
0.117

Next: `CCOC(=O)C[C@H]1[C@H](OC(=O)c2cc3ccccc3oc2=O)[C@@H](NC(=O)C2CCCCC2)c2cc(OCCCO)ccc2N1C(=O)c1ccc2ccccc2n1`
-0.245
